Source of measurements: paper PMC6630699

tested on: non-malignant mouse fibroblasts NIH 3T3; test: SRB cytotoxicity assay, NIH 3T3; type: cell-based; conditions: NIH3T3, 72 h of treatment
OBSERVED_PROPERTY: EC50 (µM)
Provide the reading as a plain figure in µM.

Field: example entries. Status: answers known.
{"COMPOUND": "CC(=O)O[C@H]1CC[C@]2(C)[C@H]3CC=C4[C@@H]5[C@@H](C)[C@H](C)CC[C@]5(C(=O)NCCN5CCN(C(=O)CN6CCN(CC(=O)OCc7ccccc7)CCN(CC(=O)OCc7ccccc7)CCN(CC(=O)OCc7ccccc7)CC6)CC5)CC[C@@]4(C)[C@]3(C)CC[C@H]2C1(C)C", "DISPLAY_UNIT": "µM", "EC50": 3.6}
{"COMPOUND": "C[C@H]1[C@H](C)CC[C@]2(C(=O)O)CC[C@]3(C)C(=CC[C@@H]4[C@@]5(C)CC[C@H](O)C(C)(C)[C@@H]5CC[C@]43C)[C@H]12", "DISPLAY_UNIT": "µM", "EC50": 13.1}
{"COMPOUND": "C[C@H]1[C@H](C)CC[C@]2(C(=O)NCCNC(=O)CN3CCN(CC(=O)OC(C)(C)C)CCN(CC(=O)OC(C)(C)C)CCN(CC(=O)OC(C)(C)C)CC3)CC[C@]3(C)C(=CC[C@@H]4[C@@]5(C)CC[C@H](O)C(C)(C)[C@@H]5CC[C@]43C)[C@H]12", "DISPLAY_UNIT": "µM", "EC50": 2.3}

Okay, next one:
query: Fill in: EC50 of CC(=O)O[C@H]1CC[C@@]2(C)C(CC[C@]3(C)C2CC=C2C4[C@@H](C)[C@H](C)CC[C@]4(C(=O)N4CCN(C(=O)CN5CCN(CC(=O)OC(C)(C)C)CCN(CC(=O)OC(C)(C)C)CCN(CC(=O)OC(C)(C)C)CC5)CC4)CC[C@]23C)C1(C)C (stereo partly shown) is ___
result: 4.6

====

tested on: FaDu (pharynx squamous cell carcinoma); experiment: SRB cytotoxicity assay, FaDu; type: cell-based, human; conditions: SI = EC50 (NIH 3T3)/EC50 (FaDu)
OBSERVED_PROPERTY: Selectivity index SI FaDu

Use the examples below as a reference point.
{"COMPOUND": "C[C@H]1[C@H](C)CC[C@]2(C(=O)NCCNC(=O)CN3CCN(CC(=O)OC(C)(C)C)CCN(CC(=O)OC(C)(C)C)CCN(CC(=O)OC(C)(C)C)CC3)CC[C@]3(C)C(=CC[C@@H]4[C@@]5(C)CC[C@H](O)C(C)(C)[C@@H]5CC[C@]43C)[C@H]12", "Selectivity index SI FaDu": 0.79}
{"COMPOUND": "O=C(CN1CCNCCN(CC(=O)OCc2ccccc2)CCN(CC(=O)OCc2ccccc2)CC1)OCc1ccccc1", "Selectivity index SI FaDu": 1.15}

Consider the additional compound presented here.
query: // Selectivity index SI FaDu lookup, key: CC(=O)O[C@H]1CC[C@@]2(C)C(CC[C@]3(C)C2CC=C2C4[C@@H](C)[C@H](C)CC[C@]4(C(=O)N4CCN(C(=O)CN5CCN(CC(=O)OC(C)(C)C)CCN(CC(=O)OC(C)(C)C)CCN(CC(=O)OC(C)(C)C)CC5)CC4)CC[C@]23C)C1(C)C (stereo partly drawn)
result: 1.24

====

In this section, each of the compounds is paired with its reported pEC50.
System: A2780 (ovarian carcinoma)
Assay: SRB cytotoxicity assay, A2780
Assay type: cell-based, human
Details: Homo sapiens, A2780, 72 h, SRB assay, 72 h of treatment
Protocol: Due to cytotoxicity evaluation, the prepared UA-DOTA conjugates were screened in rhodamine B assays employing a series of human tumor cell lines and non-malignant mouse fibroblasts (NIH 3T3). […] The cytotoxicity of the compounds was evaluated using the sulforhodamine-B (Kiton-Red S, ABCR) micro culture colorimetric assay. […] Tris base solution (200 µL, 10 mM) was added to each well and absorbance was measured at λ = 570 nm using a 96 well plate reader (Tecan Spectra, Crailsheim, Germany). […]
# pEC50 = -log10(concentration in molar units)

{"COMPOUND": "CC(C)(C)OC(=O)CN1CCNCCN(CC(=O)OC(C)(C)C)CCN(CC(=O)OC(C)(C)C)CC1 [compound 6]", "STUDY_SYSTEM": "A2780 (ovarian carcinoma)", "pEC50": 4.98}

Now look at this entry.
query: Missing value: pEC50, A2780 (ovarian carcinoma), entry CC(=O)O[C@H]1CC[C@]2(C)[C@H]3CC=C4[C@@H]5[C@@H](C)[C@H](C)CC[C@]5(C(=O)NCCN5CCN(C(=O)CN6CCN(CC(=O)OCc7ccccc7)CCN(CC(=O)OCc7ccccc7)CCN(CC(=O)OCc7ccccc7)CC6)CC5)CC[C@@]4(C)[C@]3(C)CC[C@H]2C1(C)C [compound 13] . Fill in?
result: 5.68

====

pEC50 listing for selected compounds.
test system: non-malignant mouse fibroblasts NIH 3T3; test: SRB cytotoxicity assay, NIH 3T3; format: cell-based; conditions: NIH3T3, 72 h of treatment
Counter-ions that a name gives are not always drawn.
Scale: negative log10 of molar concentration, which is what pEC50 denotes.

query: Given the entry O=C(CN1CCNCCN(CC(=O)OCc2ccccc2)CCN(CC(=O)OCc2ccccc2)CC1)OCc1ccccc1 , report its measured pEC50.
result: 5.35

query: Give its pEC50 value. Item: CC(=O)O[C@H]1CC[C@@]2(C)C(CC[C@]3(C)C2CC=C2C4[C@@H](C)[C@H](C)CC[C@]4(C(=O)NCCNC(=O)CN4CCN(CC(=O)OC(C)(C)C)CCN(CC(=O)OC(C)(C)C)CCN(CC(=O)OC(C)(C)C)CC4)CC[C@]23C)C1(C)C (some centres unmarked)
result: 5.85

query: Which measured pEC50 value corresponds to COc1cccc2c1C(=O)c1c(O)c3c(c(O)c1C2=O)C[C@@](O)(C(=O)CO)C[C@@H]3O[C@H]1C[C@H](N)[C@H](O)[C@H](C)O1 [DRC, doxorubicin hydrochloride, reference compound] ?
result: 7.22

query: Please look up its pEC50: CC(C)(C)OC(=O)CN1CCNCCN(CC(=O)OC(C)(C)C)CCN(CC(=O)OC(C)(C)C)CC1
result: 4.76

====

system: FaDu (pharynx squamous cell carcinoma); test: SRB cytotoxicity assay, FaDu; assay type: cell-based, human; conditions: SI = EC50 (NIH 3T3)/EC50 (FaDu)
OBSERVED_PROPERTY: Selectivity index SI FaDu
// response body must contain only the number

{"COMPOUND": "CC(C)(C)OC(=O)CN1CCNCCN(CC(=O)OC(C)(C)C)CCN(CC(=O)OC(C)(C)C)CC1", "STUDY_SYSTEM": "FaDu (pharynx squamous cell carcinoma)", "Selectivity index SI FaDu": 1.82}
{"COMPOUND": "CC(=O)O[C@H]1CC[C@@]2(C)C(CC[C@]3(C)C2CC=C2C4[C@@H](C)[C@H](C)CC[C@]4(C(=O)NCCNC(=O)CN4CCN(CC(=O)OC(C)(C)C)CCN(CC(=O)OC(C)(C)C)CCN(CC(=O)OC(C)(C)C)CC4)CC[C@]23C)C1(C)C (stereo partly drawn)", "STUDY_SYSTEM": "FaDu (pharynx squamous cell carcinoma)", "Selectivity index SI FaDu": 0.70}

Now consider the entry below.
query: # input compound: CC(=O)O[C@H]1CC[C@]2(C)[C@H]3CC=C4[C@@H]5[C@@H](C)[C@H](C)CC[C@]5(C(=O)NCCN5CCN(C(=O)CN6CCN(CC(=O)OCc7ccccc7)CCN(CC(=O)OCc7ccccc7)CCN(CC(=O)OCc7ccccc7)CC6)CC5)CC[C@@]4(C)[C@]3(C)CC[C@H]2C1(C)C ; wanted: its Selectivity index SI FaDu
result: 0.60

====

tested on: HT29 (colon adenocarcinoma); assay: SRB cytotoxicity assay, HT29; format: cell-based, human; conditions: Homo sapiens, HT-29; SRB assay, 72 h of treatment
OBSERVED_PROPERTY: EC50 (µM)
# value in µM; strip the unit string

{"MOLECULE": "CC(=O)O[C@H]1CC[C@]2(C)[C@H]3CC=C4[C@@H]5[C@@H](C)[C@H](C)CC[C@]5(C(=O)NCCN5CCN(C(=O)CN6CCN(CC(=O)OCc7ccccc7)CCN(CC(=O)OCc7ccccc7)CCN(CC(=O)OCc7ccccc7)CC6)CC5)CC[C@@]4(C)[C@]3(C)CC[C@H]2C1(C)C [compound 13]", "EC50 (µM)": 4}
{"MOLECULE": "C[C@H]1[C@H](C)CC[C@]2(C(=O)O)CC[C@]3(C)C(=CC[C@@H]4[C@@]5(C)CC[C@H](O)C(C)(C)[C@@H]5CC[C@]43C)[C@H]12 [UA, Ursolic acid]", "EC50 (µM)": 10.6}
{"MOLECULE": "C[C@H]1[C@H](C)CC[C@]2(C(=O)NCCNC(=O)CN3CCN(CC(=O)OC(C)(C)C)CCN(CC(=O)OC(C)(C)C)CCN(CC(=O)OC(C)(C)C)CC3)CC[C@]3(C)C(=CC[C@@H]4[C@@]5(C)CC[C@H](O)C(C)(C)[C@@H]5CC[C@]43C)[C@H]12 [compound 29]", "EC50 (µM)": 1.7}

As a next step, examine the molecule that follows.
query: GET /values?readout=EC50&item= O=C(CN1CCNCCN(CC(=O)OCc2ccccc2)CCN(CC(=O)OCc2ccccc2)CC1)OCc1ccccc1 [compound 7]
result: 2
